molecular target: Carbonic anhydrase 9 (Homo sapiens, UniProt Q16790); experiment: Inhibition of recombinant human CA9 pre-incubated for 15 mins measured by phenol red dye based stopped flow CO2 hydration assay
ASSAY METRIC: pKi
For clarity, pKi is expressed as the negative log10 of concentration in mol/L.

Some molecules with known pKi results, for comparison:
NS(=O)(=O)c1ccc(CNC(=O)Cn2cc(F)c(=O)[nH]c2=O)cc1	7.53
NS(=O)(=O)c1ccc(CCN(Cc2ccc(F)cc2)C(=O)Cn2cc(F)c(=O)[nH]c2=O)cc1	7.93
NS(=O)(=O)c1ccc(NC(=O)Cn2cc(F)c(=O)[nH]c2=O)cc1	8.32
N#Cc1ccc(CN(CCc2ccc(S(N)(=O)=O)cc2)C(=O)Cn2cc(F)c(=O)[nH]c2=O)cc1	8.31
CN(C)c1ccc(CN(CCc2ccc(S(N)(=O)=O)cc2)C(=O)Cn2cc(F)c(=O)[nH]c2=O)cc1	7.57

Next:
Quick one: pKi for NS(=O)(=O)c1ccc(O)c(NC(=O)Cn2cc(F)c(=O)[nH]c2=O)c1 ?
6.34

###

biological target: Carbonic anhydrase 12 (Homo sapiens); assay: Inhibition of recombinant human CA12 pre-incubated for 6 hrs measured by phenol red dye based stopped flow CO2 hydration assay
Sequence (O43570 whole entry): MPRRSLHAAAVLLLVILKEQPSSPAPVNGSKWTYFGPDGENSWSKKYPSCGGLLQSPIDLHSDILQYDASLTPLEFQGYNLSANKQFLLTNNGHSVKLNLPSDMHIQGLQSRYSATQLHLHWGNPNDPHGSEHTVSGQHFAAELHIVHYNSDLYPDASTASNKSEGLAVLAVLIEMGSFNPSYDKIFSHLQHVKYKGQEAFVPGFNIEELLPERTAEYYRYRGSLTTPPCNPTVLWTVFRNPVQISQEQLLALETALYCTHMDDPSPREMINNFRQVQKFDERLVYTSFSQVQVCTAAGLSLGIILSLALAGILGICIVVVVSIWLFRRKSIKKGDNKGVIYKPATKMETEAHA
Each entry below carries its recorded Ki.
Give just the numeric value; nM need not be written.

Some compounds with known Ki results, for comparison:
Cc1cc(=O)oc2cc(-n3cc(Cn4cc(F)c(=O)[nH]c4=O)nn3)ccc12	408
Cc1cc(=O)oc2cc(NC(=O)Cn3cc(F)c(=O)[nH]c3=O)ccc12	23.2

Next:
Could you share what Ki was measured for O=C(Cn1cc(F)c(=O)[nH]c1=O)Oc1ccc2ccc(=O)oc2c1 , tested on Carbonic anhydrase 12 (Homo sapiens)?
14.4

###

molecular target: UniProt Q16790; assay: Inhibition of recombinant human CA9 pre-incubated for 15 mins measured by phenol red dye based stopped flow CO2 hydration assay
ASSAY METRIC: pKi
For clarity, pKi is expressed as the negative log10 of concentration in mol/L.

Some compounds with known pKi results, for comparison:
NS(=O)(=O)c1cccc(NC(=O)Cn2cc(F)c(=O)[nH]c2=O)c1	7.35
NS(=O)(=O)c1ccc(CCNC(=O)Cn2cc(F)c(=O)[nH]c2=O)cc1	7.61
NS(=O)(=O)c1ccc(-n2cc(Cn3cc(F)c(=O)[nH]c3=O)nn2)c(Cl)c1	7.95

Quick one: pKi for NS(=O)(=O)c1ccc(-n2cc(Cn3cc(F)c(=O)[nH]c3=O)nn2)c(Br)c1 ?
8.42

Also need NS(=O)(=O)c1ccc(CCN(Cc2ccccc2)C(=O)Cn2cc(F)c(=O)[nH]c2=O)cc1 , thanks.
8.46

Also need COc1ccc(CN(CCc2ccc(S(N)(=O)=O)cc2)C(=O)Cn2cc(F)c(=O)[nH]c2=O)cc1 , thanks.
8.72

###

test system: A549; assay: Antiproliferative activity against human A549 cells assessed as cell viability measured after 72 hrs by SRB assay; assay type: functional, cell-based
Calls of active or inactive are those of the source. The rule behind the calls is not given here.
ASSAY METRIC: growth inhibition (GI)

Some compounds with known growth inhibition (GI) results, for comparison:
NS(=O)(=O)c1ccc(CCN(Cc2ccc(Cl)cc2)C(=O)Cn2cc(F)c(=O)[nH]c2=O)cc1	inactive
COc1ccc(CN(CCc2ccc(S(N)(=O)=O)cc2)C(=O)Cn2cc(F)c(=O)[nH]c2=O)cc1	inactive
NS(=O)(=O)c1ccc(-n2cc(Cn3cc(F)c(=O)[nH]c3=O)nn2)cc1	inactive
Cc1cc(=O)oc2cc(NC(=O)Cn3cc(F)c(=O)[nH]c3=O)ccc12	inactive

Quick one: growth inhibition (GI) for NS(=O)(=O)c1ccc(O)c(NC(=O)Cn2cc(F)c(=O)[nH]c2=O)c1 ?
inactive

###

target: UniProt:P00915; assay: Inhibition of recombinant human CA1 pre-incubated for 6 hrs measured by phenol red dye based stopped flow CO2 hydration assay
Sequence (P00915 whole entry): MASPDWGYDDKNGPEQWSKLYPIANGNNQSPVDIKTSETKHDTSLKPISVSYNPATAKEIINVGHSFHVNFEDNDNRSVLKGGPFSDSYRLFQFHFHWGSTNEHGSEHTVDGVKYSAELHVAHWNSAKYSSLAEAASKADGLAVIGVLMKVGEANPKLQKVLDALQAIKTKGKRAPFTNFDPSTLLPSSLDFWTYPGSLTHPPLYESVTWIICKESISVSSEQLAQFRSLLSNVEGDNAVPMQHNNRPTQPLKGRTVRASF
pKi: −log10 of the molar value.
ASSAY METRIC: pKi

Some compounds with known pKi results, for comparison:
Cc1cc(=O)oc2cc(NC(=O)Cn3cc(F)c(=O)[nH]c3=O)ccc12	< 5.00
O=C(Cn1cc(F)c(=O)[nH]c1=O)Oc1ccc2ccc(=O)oc2c1	< 5.00

Next:
Quick one: pKi for Cc1cc(=O)oc2cc(-n3cc(Cn4cc(F)c(=O)[nH]c4=O)nn3)ccc12 ?
< 5.00

###

target: Carbonic anhydrase 9 (Homo sapiens); assay: Inhibition of recombinant human CA9 pre-incubated for 15 mins measured by phenol red dye based stopped flow CO2 hydration assay
ASSAY METRIC: Ki (nM)
Give just the numeric value; nM need not be written.

NS(=O)(=O)c1cccc(-n2cc(Cn3cc(F)c(=O)[nH]c3=O)nn2)c1	105
NS(=O)(=O)c1ccc(CCN(Cc2ccc(Cl)cc2)C(=O)Cn2cc(F)c(=O)[nH]c2=O)cc1	4.2

Next:
Could you share what Ki was measured for NS(=O)(=O)c1ccc(-n2cc(Cn3cc(F)c(=O)[nH]c3=O)nn2)cc1 , tested on Carbonic anhydrase 9 (Homo sapiens)?
0.47
